- Target entity: Urease (Canavalia ensiformis, UniProt P07374)
- Sequence (P07374 whole entry): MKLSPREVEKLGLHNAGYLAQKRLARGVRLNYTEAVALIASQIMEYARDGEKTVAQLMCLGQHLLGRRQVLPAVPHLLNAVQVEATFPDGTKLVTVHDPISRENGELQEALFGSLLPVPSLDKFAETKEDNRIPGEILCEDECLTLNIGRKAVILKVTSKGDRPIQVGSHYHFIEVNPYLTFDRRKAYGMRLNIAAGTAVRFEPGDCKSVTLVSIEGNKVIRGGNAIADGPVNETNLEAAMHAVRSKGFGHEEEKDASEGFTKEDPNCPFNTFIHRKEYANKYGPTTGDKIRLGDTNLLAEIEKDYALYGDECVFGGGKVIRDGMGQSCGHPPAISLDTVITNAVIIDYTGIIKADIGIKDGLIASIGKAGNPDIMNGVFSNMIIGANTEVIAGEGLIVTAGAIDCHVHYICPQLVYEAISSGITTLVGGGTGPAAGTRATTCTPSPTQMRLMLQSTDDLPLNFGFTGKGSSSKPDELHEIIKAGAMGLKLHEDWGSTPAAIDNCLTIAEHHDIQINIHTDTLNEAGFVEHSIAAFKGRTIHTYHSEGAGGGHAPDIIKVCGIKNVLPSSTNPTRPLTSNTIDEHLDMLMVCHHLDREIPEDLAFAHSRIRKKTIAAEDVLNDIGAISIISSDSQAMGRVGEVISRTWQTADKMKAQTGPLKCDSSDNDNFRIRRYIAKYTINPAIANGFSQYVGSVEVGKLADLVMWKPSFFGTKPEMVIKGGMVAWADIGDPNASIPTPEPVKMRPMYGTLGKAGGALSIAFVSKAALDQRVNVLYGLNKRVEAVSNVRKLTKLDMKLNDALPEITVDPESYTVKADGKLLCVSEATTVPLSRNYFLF
- Measurement protocol: Inhibition of jack bean urease assessed as ammonia production after 30 mins by indophenol method
Measured attribute: pIC50
Please keep in mind that pIC50 is minus log10 of the molar concentration; only the number is needed.

Example cases with answers are listed next.
INSERT INTO assay_data (structure_smiles, quantitative_readout) VALUES
  ('N/C(S)=N/N=C/c1cccc([N+](=O)[O-])c1', 6.99),
  ('COc1cc(/C=N/NC(N)=S)cc(OC)c1OC', 6.00),
  ('COc1cc(/C=N/NC(N)=S)cc(OC)c1O', 6.63),
  ('COc1ccc(/C=N/NC(N)=S)cc1', 6.05),
  ('COc1ccc(/C=N/NC(N)=S)cc1OCc1ccccc1', 6.48),
  ('COc1cccc(/C=N/NC(N)=S)c1', 6.75);

**Query** Fill blank: measured pIC50 of the molecule `NC(=S)N/N=C/c1ccccc1OCc1ccccc1` is ____.
**Result** 6.58

**Query** Fill blank: measured pIC50 of the molecule `CN(C)c1ccc(/C=N/NC(N)=S)cc1` is ____.
**Result** 6.90

**Query** Fill blank: measured pIC50 of the molecule `N/C(S)=N/N=C/c1ccc([N+](=O)[O-])cc1` is ____.
**Result** 6.26

**Query** Fill blank: measured pIC50 of the molecule `NC(=S)N/N=C/c1ccc(O)cc1` is ____.
**Result** 6.17

**Query** Fill blank: measured pIC50 of the molecule `C/C=C/C=N/NC(N)=S` is ____.
**Result** 6.13

**Query** Fill blank: measured pIC50 of the molecule `NC(=S)N/N=C/c1ccc(Cl)cc1` is ____.
**Result** 6.39

----------
- Target entity: UniProt P07374
- Measurement protocol: Inhibition of jack bean urease assessed as ammonia production after 30 mins by indophenol method
Measured attribute: Ki (nM)
Number in nM, nothing else.

**Query** Fill blank: measured Ki of the compound `COc1cc(/C=N/NC(N)=S)cc(OC)c1OC` is ____.
**Result** 910

**Query** Fill blank: measured Ki of the compound `NC(=S)N/N=C/c1ccccc1OCc1ccccc1` is ____.
**Result** 152

**Query** Fill blank: measured Ki of the compound `NC(=S)N/N=C/C=C/c1ccccc1` is ____.
**Result** 407

**Query** Fill blank: measured Ki of the compound `COc1ccc(/C=N/NC(N)=S)cc1OCc1ccccc1` is ____.
**Result** 191

----------
- Target entity: Urease (Canavalia ensiformis)
- Measurement protocol: Inhibition of jack bean urease assessed as ammonia production after 30 mins by indophenol method
Measured attribute: Ki

Example cases with answers are listed next.
INSERT INTO results (structure_smiles, result) VALUES
  ('NC(=S)N/N=C/c1cccc(O)c1O', '127 nM'),
  ('N/C(S)=N/N=C/c1cccc(Br)c1', '670 nM');

**Query** Fill blank: measured Ki of the molecule `COc1cccc(/C=N/NC(N)=S)c1` is ____.
**Result** 127 nM

**Query** Fill blank: measured Ki of the molecule `N/C(S)=N/N=C/c1cccc([N+](=O)[O-])c1` is ____.
**Result** 90 nM

**Query** Fill blank: measured Ki of the molecule `COc1ccc(/C=N/NC(N)=S)cc1` is ____.
**Result** 807 nM
